# TGT: V-type immunoglobulin domain-containing suppressor of T-cell activation (Mus musculus)
# Sequence (Q9D659 whole entry, the tested form may be a part): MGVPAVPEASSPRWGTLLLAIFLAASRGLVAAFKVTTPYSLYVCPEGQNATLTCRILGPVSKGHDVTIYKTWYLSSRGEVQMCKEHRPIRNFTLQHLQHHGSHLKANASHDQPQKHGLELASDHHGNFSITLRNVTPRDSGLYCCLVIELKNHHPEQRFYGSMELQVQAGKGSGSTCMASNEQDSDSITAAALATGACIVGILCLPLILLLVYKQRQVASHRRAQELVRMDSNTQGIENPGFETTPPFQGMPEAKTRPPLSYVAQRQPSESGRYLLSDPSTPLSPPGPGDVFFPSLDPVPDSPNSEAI
# EXPERIMENTAL_PROTOCOL: Binding affinity to mouse VISTA ECD assessed as dissociation constant by MST analysis
MEASURED_PARAMETER: pKd
A value of pKd is the negative decimal logarithm of a concentration given in moles per litre.

Ask: May I ask what pKd has been recorded for `Cc1ccc2nc(Nc3nc(O)cc(CSc4nnc(C)s4)n3)nc(C)c2c1` ?
Result: 6.19

====

# TGT: V-type immunoglobulin domain-containing suppressor of T-cell activation (Homo sapiens, UniProt Q9H7M9)
# Sequence (Q9H7M9 whole entry, the tested form may be a part): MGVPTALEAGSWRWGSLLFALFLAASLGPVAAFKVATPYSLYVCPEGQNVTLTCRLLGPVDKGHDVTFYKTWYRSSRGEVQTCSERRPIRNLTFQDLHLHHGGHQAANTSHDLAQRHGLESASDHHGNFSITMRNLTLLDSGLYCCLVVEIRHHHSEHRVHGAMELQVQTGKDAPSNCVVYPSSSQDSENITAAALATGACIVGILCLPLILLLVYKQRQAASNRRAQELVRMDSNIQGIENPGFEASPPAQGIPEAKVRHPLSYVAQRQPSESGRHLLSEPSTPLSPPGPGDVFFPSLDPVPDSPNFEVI
MEASURED_PARAMETER: pKd
// pKd here means minus log10 of the molar concentration (mol/L)

Ask: What does the record list as pKd for COC1C=C(CNCCNC(C)=O)N=C(Nc2cccc(O)c2)N1 (stereo unspecified) ?
Result: 5.33
